B1: SLC2A12 (parent)
chain: CLLGLGSLVLILSLSYTVLIVGRI

Variants of: B1
Assay: protein stability index of a GFP-peptide fusion (GPS, HEK-293T) (PSI 1-6); higher = more stable;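 also: lentivirally expressed fusions sorted by FACS into six bins by GFP to DsRed ratio, PSI derived from sequencing read proportions per bin multiplied by bin number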
Conditions: c terminus: a fixed tail appended
QUANTITY: protein stability index
A bare number is all that is needed in reply.

Task: Report protein stability index for CLLGLGSLVLILSLSYNVLIVGRI please.
Output: 2.91
